biological target: T1, SARS-CoV-2 Spike receptor binding domain (RBD), wild type, His-tagged (SARS-CoV-2, UniProt P0DTC2); experiment: BLI; details: both partners purified
T1 construct: also called WT RBD; BEI NR52309
readout-type: binding result

binder	recorded-measurement
mAb 46, full-length IgG (antibody, V domains shown, also called antibody 46) VH: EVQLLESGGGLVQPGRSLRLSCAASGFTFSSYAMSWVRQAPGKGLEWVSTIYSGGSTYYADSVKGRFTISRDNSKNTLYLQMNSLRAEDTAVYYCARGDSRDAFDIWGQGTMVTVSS VL: DIQMTQSPSSLSASVGDRVTITCRASQSISSWLAWYQQKPGKAPKLLIYDASNLETGVPSRFSGSGSGTDFTLTISSLQPEDFATYYCQQSYSTPFTFGPGTKVDIK	binds
